Target: PDL1, Q9NZQ7
Sequence (Q9NZQ7 whole entry): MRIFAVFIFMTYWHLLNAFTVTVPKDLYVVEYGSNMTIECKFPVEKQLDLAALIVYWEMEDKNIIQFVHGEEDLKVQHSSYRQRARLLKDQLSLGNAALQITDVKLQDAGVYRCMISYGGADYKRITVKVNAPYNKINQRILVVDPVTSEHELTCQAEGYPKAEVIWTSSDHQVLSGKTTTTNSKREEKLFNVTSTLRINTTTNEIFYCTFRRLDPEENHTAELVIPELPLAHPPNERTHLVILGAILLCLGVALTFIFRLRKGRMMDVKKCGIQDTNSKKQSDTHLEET
Classes used: Yes = active, No = inactive

1) d8r1_design_ppi_1034_dldesign_0_cycle1_af2pred (protein) DQAFTDAAAAAKALAAIPKYKALGDSLAARVAALAAAAAAARAAGAADPATAAEDAAAAAALAAAAKNIGDFAKAMLKAIEEDE = Yes
2) d8r1_design_ppi_227_dldesign_0_cycle1_af2pred (protein) GAKAKAKAVLDKAKEKLAEAMKAALDADESKKPEVYKLIAEAAAALAKGIAAYKAAKNEAQLKEAIAWFEKAIAAAEKAIKLAK = No
3) d8r1_design_ppi_92_dldesign_0_cycle1_af2pred (protein) ERERERAAIRALLATVDAEYAKAAKEGPEAADAGIERVAAAAAAAGALGPDTASAGRFAVGVYRTLAEKVKAAWAA = No
4) d8r1_design_ppi_128_dldesign_0_cycle0_af2pred (protein) EELEKLKEEAKKEIKEALEYTEKAKEDPDYLAKALGHLNKARQLAAKLPSAEEVKKEIDKMISAAMAGDVEKAKEYAEKAIKLLEKD = No
5) d8r1_design_ppi_429_dldesign_0_cycle0_af2pred (protein) AAAARAAAAAEGAIAAAKLAGESGNLEALKAFVEAAHAAAAKADPATAAALKAKADATLEAAKKAFKEKEEA = No

Numbers sourced from paper PMC13494018.
